The measurements presented in this section are drawn from patent US20100040762A1.

# Tested on: isolated rat brain hippocampal section preparation
# TEST_DETAILS: isolated rat brain hippocampal section preparation, extra-cellular field potentials after electrical stimulation
# SETUP_CONDITIONS: in vitro, single stimulus excitation and theta-burst stimulation
MEASUREMENT_NAME: influence on hippocampal electrical activity

O=C(O)[C@]1(O)C[C@@H](O)[C@@H](O)[C@H](O)C1 [quinic acid] = stimulating substances
N[C@@H](CCC(=O)O)C(=O)O [Glutamic acid, glutamic acid] = stimulating substances
O=C(O[C@@H]1C[C@@](O)(C(=O)O)C[C@@H](O)[C@@H]1O)c1cc(O)c(O)c(O)c1 [theogallin, 5-galloyl quinic acid] = stimulating substances
